system: salmonellas; experiment: Minimum inhibitory concentration in vitro, doubling dilutions; format: cell-based; conditions: strain FS1303B; read-out: Minimum inhibitory concentration (MIC), Salmonellas FS1303B

Compound | Experimental system | MIC
CCCCCCCCCCCCCCc1cccc(=O)c(O)c1 | salmonellas | > 100 µg/mL
CC(C)c1cccc(=O)c(O)c1 [IST_001_002, reference compound] | salmonellas | 25 µg/mL
CCC(C)c1cccc(=O)c(O)c1 (centres unmarked) | salmonellas | 25 µg/mL
CCCCCc1cccc(=O)c(O)c1 | salmonellas | 6.25 µg/mL
CCCc1cccc(=O)c(O)c1 | salmonellas | 6.25 µg/mL

* * *

system: streptococcus; assay: Minimum inhibitory concentration in vitro, doubling dilutions; format: cell-based; conditions: strain TS1205-2, read-out: Minimum inhibitory concentration (MIC), Streptococcus TS1205-2

Molecule | Result comparator | MIC, µg/mL
CCCCCCCCCCCCCCc1cccc(=O)c(O)c1 [IST_009_033] | > | 100
CCc1cccc(=O)c(O)c1 [IST_009_018] | > | 100
CC(C)c1cccc(=O)c(O)c1 [IST_001_002, reference compound] | = | 50
CCC(C)c1cccc(=O)c(O)c1 (centres unmarked) [IST_009_008] | = | 50
O=c1cccc(Cc2ccc(F)cc2)cc1O [IST_009_028] | = | 25
